# Tested on: NCI H292
# RUN DESCRIPTION: Cytotoxicity in vitro in the presence and absence of legumain
# Assay type: cell-based
# REPORTED CONDITIONS: Homo sapiens, NCI-H292, read-out: NCI H292 IC50 w legumain
pIC50: −log10 of the molar value.
QUANTITY: pIC50

Problem: Assign pIC50 to the following record: "CC[C@@]1(O)C(=O)OCc2c1cc1n(c2=O)Cc2c-1nc1cc(F)c(C)c3c1c2[C@@H](NC(=O)[C@H](CC(N)=O)NC(=O)Cc1ccncc1)CC3"
Result: < 7.00

###

# System: HT29
# RUN DESCRIPTION: Cytotoxicity in vitro in the presence and absence of legumain
# Type: cell-based
# REPORTED CONDITIONS: Homo sapiens, HT-29, read-out: HT29 IC50 w/o
QUANTITY: IC50

Problem: Please report IC50 with HT29 for item CC[C@@]1(O)C(=O)OCc2c1cc1n(c2=O)Cc2c-1nc1cc(F)c(C)c3c1c2[C@@H](NC(=O)[C@H](CC(N)=O)NC(=O)Cc1ccncc1)CC3 [Compound 10] .
Result: > 0.1 µM
